logβ [CuH-1L] values, listed per item
# CONDITION LABEL: T = 298 K, I = 0.1 M (KCl); charges omitted
Residues, ends and D or L forms follow the SMILES beside them.

COMPOUND	logβ [CuH-1L]
CC[C@H](C)[C@H](NC(=O)[C@H](C)NC(=O)[C@@H](N)C(C)C)C(=O)N[C@@H](C)C(=O)N[C@@H](CC(C)C)C(=O)N[C@@H](CCCCN)C(=O)N[C@@H](C)C(=O)N[C@@H](C)C(=O)N[C@@H](Cc1c[nH]cn1)C(=O)N[C@@H](Cc1ccc(O)cc1)C(=O)N[C@@H](Cc1c[nH]cn1)C(=O)N[C@H](C(=O)N[C@@H](Cc1c[nH]cn1)C(=O)N[C@@H](CCCCN)C(=O)N[C@@H](CCC(=O)O)C(=O)O)[C@@H](C)O [WT, VAIALKAAHYHTHKE, reference compound] (H-VAIALKAAHYHTHKE-OH)	6.90(5)
CC[C@H](C)[C@H](NC(=O)[C@H](C)NC(=O)[C@@H](N)C(C)C)C(=O)N[C@@H](C)C(=O)N[C@@H](CC(C)C)C(=O)N[C@@H](CCCCN)C(=O)N[C@@H](C)C(=O)N[C@@H](C)C(=O)N[C@@H](Cc1c[nH]cn1)C(=O)N[C@@H](Cc1ccc(O)cc1)C(=O)N[C@@H](Cc1c[nH]cn1)C(=O)N[C@H](C(=O)N[C@@H](Cc1c[nH]cn1)C(=O)N[C@@H](CCCCN)C(=O)N[C@@H](CCC(=O)O)C(N)=O)[C@@H](C)O [L3, VAIALKAAHYHTHKE-NH2] (H-VAIALKAAHYHTHKE-NH2)	5.82(4)
CC[C@H](C)[C@H](NC(=O)[C@H](C)NC(=O)[C@@H](NC(C)=O)C(C)C)C(=O)N[C@@H](C)C(=O)N[C@@H](CC(C)C)C(=O)N[C@@H](CCCCN)C(=O)N[C@@H](C)C(=O)N[C@@H](C)C(=O)N[C@@H](Cc1c[nH]cn1)C(=O)N[C@@H](Cc1ccc(O)cc1)C(=O)N[C@@H](Cc1c[nH]cn1)C(=O)N[C@H](C(=O)N[C@@H](Cc1c[nH]cn1)C(=O)N[C@@H](CCCCN)C(=O)N[C@@H](CCC(=O)O)C(=O)O)[C@@H](C)O [L1, Ac-VAIALKAAHYHTHKE] (Ac-VAIALKAAHYHTHKE-OH)	1.84(3)
CC[C@H](C)[C@H](NC(=O)[C@H](C)NC(=O)[C@@H](NC(C)=O)C(C)C)C(=O)N[C@@H](C)C(=O)N[C@@H](CC(C)C)C(=O)N[C@@H](CCCCN)C(=O)N[C@@H](C)C(=O)N[C@@H](C)C(=O)N[C@@H](Cc1c[nH]cn1)C(=O)N[C@@H](Cc1ccc(O)cc1)C(=O)N[C@@H](Cc1c[nH]cn1)C(=O)N[C@H](C(=O)N[C@@H](Cc1c[nH]cn1)C(=O)N[C@@H](CCCCN)C(=O)N[C@@H](CCC(=O)O)C(N)=O)[C@@H](C)O [L2, Ac-VAIALKAAHYHTHKE-NH2] (Ac-VAIALKAAHYHTHKE-NH2)	4.57(6)
